# maps each entry to its normalized RNA/DNA level with ligand (log10)
B1: library; a variant is named by its letters at N, in order (parent)
chain: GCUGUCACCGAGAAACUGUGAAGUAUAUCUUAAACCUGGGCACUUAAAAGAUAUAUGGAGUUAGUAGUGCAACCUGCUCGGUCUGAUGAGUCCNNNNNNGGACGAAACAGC

# Variants of: B1
# assay protocol: normalized RNA/DNA level with ligand (relative to sTRSVctl = 100) (log10 (% of sTRSVctl)); HEK293T; ligand: cyclic di-GMP (c-di-GMP-II aptamer); ligand concentration (+) RNA-Seq: 1 mM; higher = less ribozyme self-cleavage, higher mRNA level
# assay context: reporter: mCherry (pCS4076), ligand present: yes
Please reply with the value in numeric form only.

Completed entries (count: 5):
GACCCC :: 1.88
ACAUCC :: 1.83
AGUCCU :: 1.87
CUUUAC :: 1.84
AGCAAG :: 1.68

**Query** Data request, read-out normalized RNA/DNA level with ligand (log10), for "ACGAUA"
**Result** 1.68

**Query** Data request, read-out normalized RNA/DNA level with ligand (log10), for "ACCGGA"
**Result** 1.71

**Query** Data request, read-out normalized RNA/DNA level with ligand (log10), for "UUCGCA"
**Result** 1.9

**Query** Data request, read-out normalized RNA/DNA level with ligand (log10), for "CGCGGC"
**Result** 1.87

**Query** Data request, read-out normalized RNA/DNA level with ligand (log10), for "UUUACC"
**Result** 1.87

**Query** Data request, read-out normalized RNA/DNA level with ligand (log10), for "CUAUAG"
**Result** 1.84

**Query** Data request, read-out normalized RNA/DNA level with ligand (log10), for "GUAACC"
**Result** 1.87
